assay: chemical genetic growth profiling, strain panel (AID 1159580);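 further: tested at 20 µM; growth read once vehicle control cultures reached saturation at 30 °C; 1 = growth at the plate median or of vehicle wells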; settings: S. cerevisiae deletion strains, growth OD, locus YLR058C, strain SHM2
The campaign covered roughly 5,500 compounds. About 2,000 (36%) were called active. Roughly 18% stayed inconclusive and do not appear here. No stated cut-off is given here; in the data, active means normalized growth mostly below about 0.91 (no sharp cut-off); inconclusive means no clear call, values can overlap the other calls; inactive means mostly above about 0.92. The list shows a part of the results.
Your answer must be one of the following: active, inactive

| compound | class label |
| --- | --- |
| COc1ccc(CCN2CCC(Nc3nc4ccccc4n3Cc3ccc(F)cc3)CC2)cc1 | inactive |
| C=C1C(C)C2C(Cc3ccccc3)NC(=O)C23OC(=O)/C=C/C(O)CCCC(C)C/C=C/C3C1O (configuration not stated) | inactive |
| CCCC(=O)O[C@]1(C(=O)CO)CCC2[C@@H]3CCC4=CC(=O)CC[C@]4(C)C3[C@@H](O)C[C@@]21C (some centres not stated) | inactive |
| CC1(C)NC(=O)N(c2ccc([N+](=O)[O-])c(C(F)(F)F)c2)C1=O | inactive |
| O=C(Cn1ccnc1[N+](=O)[O-])NCCO | inactive |
| CCCCOC(=O)c1ccc(N)cc1 | inactive |
| O=c1[nH]oc2c1CCNC2 | inactive |
| COc1ccc2c(c1OC)C(=O)OC2[C@H]1c2c(cc3c(c2OC)OCO3)CCN1C (some centres not stated) | inactive |

Answer briefly: the call reported for O=C(O)CN1C(=O)c2cccc3cccc(c23)C1=O in this assay.
inactive

Answer briefly: the call reported for CO/N=C(\C(=O)N[C@@H]1C(=O)N2C(C(=O)O)=C(CSc3nc(=O)c(O)nn3C)CS[C@H]12)c1csc(N)n1 in this assay.
inactive

Answer briefly: the call reported for COc1cc2occ(-c3ccccc3)c(=O)c2c(OC)c1C in this assay.
inactive

----------
assay: chemical genetic growth profiling, strain panel (AID 1159580); conditions: S. cerevisiae deletion strains, growth OD, locus YHR200W, strain rpn10, stronger effect = lower value
In all, about 5,500 compounds went through this assay and about 2,000 (36%) were called active. Inconclusive results (about 18%) are left out. The list shows a part of the results.
Readings of normalized growth for the listed compounds

Check out these entries, answers already filled in.
| compound | quantity kind | reported |
| --- | --- | --- |
| CO/N=C(\C(=O)N[C@@H]1C(=O)N2C(C(=O)O)=C(COC(C)=O)CS[C@H]12)c1csc(N)n1 | normalized growth | 0.981 (inactive) |
| CC[N+](CC)(CC)CCOc1cccc(OCC[N+](CC)(CC)CC)c1OCC[N+](CC)(CC)CC | normalized growth | 1.02 (inactive) |

Kindly note the recorded normalized growth for CO/N=C(\C(=O)NC1C(=O)N2C(C(=O)O)=C(COC(N)=O)CSC12)c1ccco1 (stereo not drawn) , which is 0.0599 (active)

Kindly note the recorded normalized growth for O=C1OC(c2ccc(O)cc2)(c2ccc(O)cc2)c2ccccc21 , which is 0.967 (inactive)

Kindly note the recorded normalized growth for O=c1cc[nH]c(=S)[nH]1 , which is 1.02 (inactive)

Kindly note the recorded normalized growth for CC(C)C(C)/C=C/C(C)[C@H]1CCC2C3=CCC4CC(=O)CC[C@]4(C)C3CC[C@@]21C (stereo partly drawn) , which is 1.01 (inactive)

----------
experiment: chemical genetic growth profiling, strain panel (AID 1159580); details: S. cerevisiae deletion strains, growth OD, locus YIR030C, strain dcg1, stronger effect = lower value
Hit rate of the full screen: of about 5,500 compounds, about 2,000 (36%) were called active. Inconclusive results (about 18%) are left out. Some of the results follow.
Readings of normalized growth for the listed compounds
Respond numerically, and do not add a unit to the figure.

Kindly note the recorded normalized growth for C#CCCCCCCCCCCCC(O)CC(O)CO (stereo not given) , which is 1

----------
experiment: chemical genetic growth profiling, strain panel (AID 1159580);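 further: tested at 20 µM; growth read once vehicle control cultures reached saturation at 30 °C; 1 = growth at the plate median or of vehicle wells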; conditions: S. cerevisiae deletion strains, growth OD, locus YCR088W, strain abp1, stronger effect = lower value
In all, about 5,500 compounds went through this assay and about 2,000 (36%) were called active. Not shown: some 18% with an inconclusive outcome. The list shows a part of the results.
Readings of normalized growth for the listed compounds
Respond numerically, and do not add a unit to the figure.

| compound | reported |
| --- | --- |
| COc1ccc([C@H]2Oc3cc(OC)cc(OC)c3C[C@H]2O)cc1 | 0.999 |
| COc1c2ccoc2c(OC)c2oc(=O)ccc12 | 0.997 |
| C[C@H]1CC[C@@H](C(C)(C)O)CC2=C1CC[C@@H]2C | 0.993 |

Kindly note the recorded normalized growth for C=CCSCC1Nc2cc(Cl)c(S(N)(=O)=O)cc2S(=O)(=O)N1 (stereo unspecified) , which is 1

Kindly note the recorded normalized growth for O=C1[C@H](CCC(O)c2ccc(F)cc2)[C@@H](c2ccc(O)cc2)N1c1ccc(F)cc1 (stereo partly specified) , which is 0.967

Kindly note the recorded normalized growth for COc1ccc2c(c1OC)C(=O)OC2[C@H]1c2c(cc3c(c2OC)OCO3)CCN1C (stereo partly specified) , which is 1.01

----------
test: chemical genetic growth profiling, strain panel (AID 1159580);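 further: tested at 20 µM; growth read once vehicle control cultures reached saturation at 30 °C; 1 = growth at the plate median or of vehicle wells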; conditions: S. cerevisiae deletion strains, growth OD, locus YMR078C, strain ctf18
Among all 5,500 compounds or so, about 2,000 (36%) were called active. Another 18% or so got no clear call; they are omitted. No stated cut-off is given here; in the data, active means normalized growth mostly below about 0.91 (no sharp cut-off); inconclusive means no clear call, values can overlap the other calls; inactive means mostly above about 0.92. The list shows a part of the results.
Your answer must be one of the following: Yes (active), No (inactive)

Use these answered entries as a reference point.
| molecule | class label |
| --- | --- |
| Cc1cc(-c2ccccc2)nnc1NCCN1CCOCC1 | No |
| CC[C@H](C)C(=O)O[C@H]1C[C@@H](C)C=C2C=C[C@H](C)[C@H](CC[C@@H]3C[C@@H](O)CC(=O)O3)[C@H]21 | No |
| C/C1=C\CCC(=O)C2CC(C)(C)C2CC1 (configuration not stated) | No |
| CC(C)C(C)/C=C/C(C)C1CCC2C3=CC=C4CC(O)CCC4(C)C3CCC21C (configuration not stated) | No |
| Cc1ccc(C)c(OCCCC(C)(C)C(=O)O)c1 | No |
| Cn1c(=O)c2[nH]cnc2n(C)c1=O | No |

Answer briefly: the call reported for COc1cc2occ(-c3ccccc3)c(=O)c2c(OC)c1C in this assay.
No

Answer briefly: the call reported for C=C1CCC(OC(C)=O)/C(C)=C/C[C@@H]2[C@@H]1CC2(C)C (some centres not stated) in this assay.
No

----------
Readings of normalized growth for the listed compounds
experiment: chemical genetic growth profiling, strain panel (AID 1159580);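 further: tested at 20 µM; growth read once vehicle control cultures reached saturation at 30 °C; 1 = growth at the plate median or of vehicle wells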; settings: S. cerevisiae deletion strains, growth OD, locus YNL224C, strain SQS1, stronger effect = lower value
In all, about 5,500 compounds went through this assay and about 2,000 (36%) were called active. Roughly 18% stayed inconclusive and do not appear here. This is one part of the list.
Respond numerically, and do not add a unit to the figure.

| compound | quantity kind | reported |
| --- | --- | --- |
| O=C(O)Cc1ccc(O)c(O)c1 | normalized growth | 0.982 |
| CC[C@H](C)C(=O)O[C@H]1CCC=C2C=C[C@H](C)[C@H](CC[C@@H]3C[C@@H](O)CC(=O)O3)[C@H]21 | normalized growth | 0.98 |
| CCCCC#Cc1nc(N)c2ncn([C@@H]3O[C@H](C(=O)NCC)[C@@H](O)[C@H]3O)c2n1 | normalized growth | 1.01 |
| CC(C)(Oc1ccc(C2CC2(Cl)Cl)cc1)C(=O)O (configuration not stated) | normalized growth | 0.99 |
| O=C(O)Cc1c[nH]c2ccc(O)cc12 | normalized growth | 1.01 |
| OCc1cnc[nH]1 | normalized growth | 1.01 |
| CC(C)(C)C1(O)CCN2CC3c4ccccc4CCc4cccc(c43)C2C1 (configuration not stated) | normalized growth | 0.997 |
| Clc1cccc(Cl)c1NC1=NCCN1 | normalized growth | 1 |
| COc1nc(C)nc(Cl)c1NC1=NCCN1 | normalized growth | 1.01 |
| CC(/C=C/c1cccc(Oc2ccc(F)cc2)c1)N(O)C(N)=O (configuration not stated) | normalized growth | 0.984 |

Kindly note the recorded normalized growth for COC(=O)C1=CCCN(C)C1 , which is 1

Kindly note the recorded normalized growth for C[C@@H](CN1CCC(Cc2ccccc2)CC1)[C@@H](O)c1ccc(O)cc1 , which is 1.02

Kindly note the recorded normalized growth for CCCCNc1ccc(C(=O)OCCN(C)C)cc1 , which is 0.99

Kindly note the recorded normalized growth for CCN(CC)CCOC(=O)c1ccc(N)cc1 , which is 0.998

Kindly note the recorded normalized growth for CC1CNCCN1S(=O)(=O)c1cccc2cnccc12 (configuration not stated) , which is 1.02

Kindly note the recorded normalized growth for CCCN1CCC[C@H](c2cccc(O)c2)C1 , which is 1

Kindly note the recorded normalized growth for CC(C(O)c1ccc(O)cc1)N1CCC(Cc2ccccc2)CC1 (configuration not stated) , which is 1.03

Kindly note the recorded normalized growth for Cn1c(=O)c2[nH]cnc2n(C)c1=O , which is 0.99

Kindly note the recorded normalized growth for Cc1ccc([N+](=O)[O-])cc1S(=O)(=O)N(C)C , which is 0.979
